protocolText: folding stability dG unfold (combined trypsin and chymotrypsin); higher = more stable
Tag: 1 if measured folding stability dG unfold is not below 1 kcal/mol, -1 if it is.

{"columns": ["orderedResidues", "categoryLabel"],
 "data": [
  ["SAGGSAGGGMLNGLLEKLLLAEPVEVDPVTTTVTPSPNGTVTTTPVYSTADDSVLTETQTTPVASAGGSAGG [r6_326_JUSTAS]", -1],
  ["SAGGSAGGSSYTVSEDPNSSSTTITDPVTGRTVLRSPSSWTVVDPETGEEKSFPAGTVVTLPESAGGSAGGS [r12_584_JUSTAS]", -1],
  ["SAGSIPEEIAKELGLPDLKVLKVETKPLPNGPLNIKIIELELPGGFKIKVTVVEEPEKIIIKTEPVPLSAGG [r19_392_JUSTAS]", -1],
  ["SAGGSAGGSANGFVFKIKEVFEVDGKLFLKVTGTDKEYIIPDNAIIEPLEDDSVKVIILPPESAGGSAGGSA [r18_468_TrMRF]", 1],
  ["SAGMPDVPPVPRTFRLEIEIEVPAEDPELARELAEEIREEIRRLGAVRTEVEIDPEPGRVRVRVEFVEGSAG [r5_512_TrMRF]", 1],
  ["SAGGRKITINWNPNSGEIKVKIIWPDGEKEELPIPVPEGHDSPRQFADELKDNAQERFGEPVKIEITSAGGS [r8_166_TrROS]", -1],
  ["SAGGSERTIMIPVEPGMSPEQIADEIKAILRELGPGRPIEIDDVHPGGWVKIKINNKPIKIHIMWPSAGGSA [r2_102_TrROS]", 1]
]}
